# target or system: KRas^G12A (Homo sapiens, UniProt P01116, G12A)
# Construct: […]; biotin (biotinylated); purchased Accelegan Inc
# Sequence (P01116 1-169 isoform P01116-2 G12A): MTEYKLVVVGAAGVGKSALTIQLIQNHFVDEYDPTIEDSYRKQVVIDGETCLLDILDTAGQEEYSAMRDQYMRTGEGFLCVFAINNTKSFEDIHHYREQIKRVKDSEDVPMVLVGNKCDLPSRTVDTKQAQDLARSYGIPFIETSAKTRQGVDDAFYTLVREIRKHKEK
# experimental details: KRas binding assay (TR-FRET displacement of Cy5 labelled tracer)
pIC50: −log10 of the molar value.
metric name: pIC50

# count of solved cases: 5
In [3]: df
Out[3]:
                                   molecule  metric_name  value_observed
0  CCc1cccc2cccc(N3CCc4c(nc(OCC56CCCN5CCC6)nc4NC4CC(=O)N(c5cnn(C)c5)C4)C3)c12 (stereo not drawn)        pIC50            5.23
1  CCc1cccc2cccc(N3CCc4c(nc(OCC56CCCN5CCC6)nc4N4CC5(CNC(=O)N5)C4)C3)c12        pIC50            5.60
2  CCc1cccc2cccc(N3CCc4c(nc(OCC56CCCN5CCC6)nc4N4CCCC(n5ccc(C)n5)C4)C3)c12 (stereo not drawn)        pIC50            6.10
3  CCc1cccc2cccc(N3CCc4c(nc(OCC56CCCN5CCC6)nc4NCc4cccnc4-n4cncn4)C3)c12        pIC50            5.63
4  CCc1cccc2cccc(N3CCc4c(nc(OCC56CCCN5CCC6)nc4N4CCCC(c5ncc(C)s5)C4)C3)c12 (stereo not drawn)        pIC50            5.57

(1) CCc1cccc2cccc(N3CCc4c(nc(OCC56CCCN5CCC6)nc4N4CC5CNC(=O)C5C4)C3)c12 (stereo not drawn)
(2) CCc1cccc2cccc(N3CCc4c(nc(OCC56CCCN5CCC6)nc4N(C)CC4(O)CC4)C3)c12
(3) CCc1cccc2cccc(N3CCc4c(nc(OCC56CCCN5CCC6)nc4N4CCCC(c5nnc(CO)n5C)C4)C3)c12 (stereo not drawn)
(4) CCc1cccc2cccc(N3CCc4c(nc(OCC56CCCN5CCC6)nc4N4CCCc5ncccc5C4)C3)c12
(5) CCc1cccc2cccc(N3CCc4c(nc(OCC56CCCN5CCC6)nc4N4CCOCC(O)C4)C3)c12 (stereo not drawn)
Arrange by pIC50, high to low. Please respond by ranking the labels in the order requested.
5, 2, 1, 4, 3
(5: 7.07, 2: 6.34, 1: 5.89, 4: 5.68, 3: 5.26)

Source listed as patent US12421253B2.
